substrate: PET; assay: Proxy for plastic degradation [Released monomer concentration (HPLC/LC-MS) (MHET+TPA)]; conditions: pH 9; 50 °C; part of the chain shown

{"columns": ["sequence_input", "Proxy for plastic degradation (µM)"],
 "data": [
  ["CFGGGDPDPSPEGQALGVPGDFEICSYEANLENDGYASARMTYPCDLS", 11],
  ["QTNPYARGPNPTAASLEASAGPFTVRSFTVSRPSGYGAGTVYY", 46.9],
  ["GDPPAVRTVPAAAAAPVDWSKTGPHQVKVDKADAHTIYRPSDLG", 15.7],
  ["DPWDAPGPYATAVQIGAVNTLYYPRDIASSPRRHPVIVWGNGT", 14.2],
  ["VTKGPDPSAAEVAKVTGSYAVTETKVDDAASTKFGPATV", 15.3],
  ["LDSPYQRGPDPTEASVKAIAGPFAVDQVKATGHTGFGSGTIFYP", 44.2],
  ["AGFEKGPDPTTASVTADRGSYDIAQVDVPKGSGTGFADGTIYY", 14.1],
  ["ESETTAAAVSSRYYEETGPHAVTVEQGGPDHTLYYPSDLGAGGT", 10.6],
  ["NNPGGGGGTAPDTGTGFPGVSNFSASGSFATTSGSAGASCTVFRPST", 9.57],
  ["DEIGQAPTAANITGDGSFSTSSSAIFGQSGFGGGTAYYPNTAGKYPVVAF", 3600],
  ["TPEFKPQPGPLSIKSAAAISFRVEDQAKDLQIRVTYPDGPGPWP", 17.3],
  ["FGNNGGGGGGEDNVFAEPGDFDVVTEPGGRDCTIFRPEQLGDDH", 15.8]
]}
